Catalogue of molecules with associated pIC50
- experimental.target: human erythrocyte AChE (Homo sapiens)
- Construct: Erythrocytes were washed three times in isotonic saline, lysed
- Sequence (P22303-2 with tags, fused parts or gaps limits assumed): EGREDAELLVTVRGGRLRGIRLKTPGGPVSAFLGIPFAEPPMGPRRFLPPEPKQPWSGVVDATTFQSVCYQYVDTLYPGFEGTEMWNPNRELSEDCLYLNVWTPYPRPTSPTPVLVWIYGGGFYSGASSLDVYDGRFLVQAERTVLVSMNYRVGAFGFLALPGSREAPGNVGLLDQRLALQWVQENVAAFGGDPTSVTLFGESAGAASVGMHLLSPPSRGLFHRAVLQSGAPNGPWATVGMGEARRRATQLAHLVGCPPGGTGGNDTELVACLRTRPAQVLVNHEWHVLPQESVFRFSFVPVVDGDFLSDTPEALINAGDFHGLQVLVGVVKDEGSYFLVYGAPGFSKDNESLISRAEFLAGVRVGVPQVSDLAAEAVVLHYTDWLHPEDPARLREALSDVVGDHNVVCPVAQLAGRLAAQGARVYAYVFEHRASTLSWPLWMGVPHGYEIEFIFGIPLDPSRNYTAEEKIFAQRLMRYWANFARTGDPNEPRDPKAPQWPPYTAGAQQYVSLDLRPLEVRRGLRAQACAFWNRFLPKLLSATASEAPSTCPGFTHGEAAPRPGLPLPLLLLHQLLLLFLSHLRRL
- assay.remarks: biochemical
// pIC50 is dimensionless: -log10 of concentration (M)

Request: Request - read-out pIC50 | tested on human erythrocyte AChE (Homo sapiens) | molecule `CCc1ccccc1NC(=O)Oc1ccc2c(c1)[C@]1(C)CCS[C@@H]1N2C`
Response: 7.52

Request: Next: `CC(C)c1ccccc1NC(=O)Oc1ccc2c(c1)[C@]1(C)CCS[C@@H]1N2C`
Response: 7.59

Request: Next: `CCCCCCCNC(=O)Oc1ccc2c(c1)[C@]1(C)CCS[C@@H]1N2C`
Response: 7.59

Request: Next: `CN(C)C(=O)Oc1ccc2c(c1)[C@]1(C)CCS[C@@H]1N2C`
Response: 6.70

Request: Next: `CN1c2ccc(OC(=O)Nc3ccccc3)cc2[C@]2(C)CCS[C@H]12`
Response: 7.57

Request: Next: `Cc1ccc(NC(=O)Oc2ccc3c(c2)[C@]2(C)CCS[C@@H]2N3C)c(C)c1`
Response: 7.58

Now, please, on to the next molecule.
Request: Request - read-out pIC50 | tested on human erythrocyte AChE (Homo sapiens) | molecule `Cc1ccccc1NC(=O)Oc1ccc2c(c1)[C@]1(C)CCS[C@@H]1N2C`
Response: 7.54
